System: 786-0 renal
PROTOCOL TEXT: NCI-60 one-dose screen, 48 h (100 = growth as untreated, 0 = no growth, -100 = all killed)
PROTOCOL CONDITIONS: 10 µM unless noted
Procedure: Cells are grown in 96 well plates and exposed to the test compound for 48 hours. Compounds are tested at a single concentration, which is 10^-5 M for most compounds. The reported endpoint is percent growth (GI% or GIPRCNT), where numbers from 0 - 100% represent growth inhibition, and numbers from -100% - 0 represent cell death. For example, a value of 40 represents 60% growth inhibition. A value of 0 means no net growth occurred over the course of the experiment. […]
The panel holds about 83,000 compounds, 20% with a hit somewhere; the sample as a whole holds those more often.
MEASURED ATTRIBUTE: growth (%)
Unit % implied. Number only.

Below, 5 molecules whose answers are already recorded.
MOLECULE | TESTED ON | growth [%]
CC1(C)OC2COC3(C(=O)O)OC(C)(C)OC3C2O1 (configuration not stated) | 786-0 renal | 104
CCN(CC)CCC(=O)c1cccc2ccccc12 | 786-0 renal | 102
COc1cccc(C2CC(=O)Nc3c2c(C)nn3-c2nc3ccccc3[nH]2)c1OC (configuration not stated) | 786-0 renal | 91.7
COc1ccc(Cn2c(SC)nc(=O)n(Cc3ccc(Cl)cc3)c2=O)cc1 | 786-0 renal | 98.7
C=CCOc1ccc(/C(O)=C2\C(=O)C(=O)N(c3nccs3)C2c2ccccc2F)cc1 (configuration not stated) | 786-0 renal | 95.5

Return reported growth; argument: `Clc1nc2ccccc2nc1CI`
101

Return reported growth; argument: `O=C(O)c1ccc(-n2c(=O)c3ccccc3c3ccccc3c2=O)cc1`
109

Return reported growth; argument: `CNC(C)=O`
106

Return reported growth; argument: `CCN(C(=O)c1cc2ncccc2[nH]1)[C@H]1CCC[C@@H](NCc2cccc(F)c2)C1`
110

Return reported growth; argument: `CCN(Cc1ccccc1)c1ccc(SC#N)cc1`
73.4

Return reported growth; argument: `CCSc1nnc(Nc2ccc(C(C)C)cc2)s1`
86

Return reported growth; argument: `CN(C)CCCNC(=O)C(c1ccccc1)c1ccccc1`
102

###

System: SN12C renal
PROTOCOL TEXT: NCI-60 one-dose screen, 48 h
PROTOCOL CONDITIONS: 10 µM unless noted
This is part of a sample that, as a whole, favours compounds with a hit. Of some 83,000 tested, about 20% had one in any assay. Activity calls are given as the source filed them. How the source made its calls: active means growth percent below 10; inactive means the rest.
Form entry, call: pick from active, inactive

As a guide, the following entries are already answered.
COMPOUND | GROUP LABEL
CCC1CCc2nc3sc(C(=O)Nc4cccc(C)c4)c(N)c3cc2C1 (stereo unspecified) | inactive
COc1cc(OC)c(C(=O)/C=C/c2ccc(C(F)(F)F)cc2)c(OC)c1 | inactive
O=C(Nc1cccc(Cl)c1)c1cc([N+](=O)[O-])ccc1O | inactive
COc1ccc(C2CC(c3cccs3)=NN2c2ccc(S(=O)(=O)NC(=O)Nc3ccc(C)cc3)cc2)cc1 (stereo unspecified) | inactive
COc1cc(-c2csc(NC(=O)c3cc(C(F)(F)F)cc(C(F)(F)F)c3)n2)cc(OC)c1OC | inactive

In this assay, the call recorded for `O=C(CN1CCOCC1)Nc1ccc(-c2nc3ccccc3s2)cc1` was what?
inactive

###

System: OVCAR-4 ovarian
PROTOCOL TEXT: NCI-60 one-dose screen, 48 h (100 = growth as untreated, 0 = no growth, -100 = all killed)
PROTOCOL CONDITIONS: 10 µM unless noted
Compounds without any hit were thinned out: in the full panel of roughly 83,000, 20% have a hit.
Lab note: anything with growth below 40% is marked true; values at 40% or higher are marked false.

As a guide, the following entries are already answered.
SMILES REPR | GROUP LABEL
O=C1CCC/C=C\C[C@H]2C=CC(=O)/C2=C/C[C@H](C/C=C\CC(F)(F)F)O1 | true
O=C(/C=C/CN1CCOCC1)Nc1cc2c(Nc3cccc(Cl)c3F)ncnc2cc1OCCOC(F)F | false
CC/C=C\C/C=C\C[C@H]1C/C=C2/C(=O)C=C[C@H]2C/C=C\CCC(=O)O1 | false
COC1=CC(c2ccc[nH]2)=N/C1=C\c1[nH]c(C)c(C(=O)CCCCC(=O)Nc2ccccc2)c1C | false

As a next step, examine the molecule that follows.
Could you please tell me whether growth recorded for `Cn1c(=O)c2c(nc3n2CCN(CCc2ccc(OCCN4CCOCC4)cc2)C3)n(C)c1=O` is less than 40%?
false

###

Tested on: RPMI-8226 leukemia
PROTOCOL TEXT: NCI-60 one-dose screen, 48 h (100 = growth as untreated, 0 = no growth, -100 = all killed)
PROTOCOL CONDITIONS: 10 µM unless noted
This is part of a sample that, as a whole, favours compounds with a hit. Of some 83,000 tested, about 20% had one in any assay.
Classify as follows. Reported growth greater than or equal to 90%: satisfied. Reported growth below: not satisfied.

As a guide, the following entries are already answered.
MOLECULE | GROUP LABEL
N=C(N)c1ccc(-c2ccc(-c3ccc(Cl)cc3)o2)nc1 | not satisfied
COC1=CC(c2ccc[nH]2)=N/C1=C\c1[nH]c(C)c(C(=O)CCCCC(=O)NCc2ccccc2)c1C | not satisfied
Cc1cc(Nc2nc(C(=O)Nc3ccccc3)nc3ccccc23)n[nH]1 | not satisfied
CCCCCCCCCN1C(=O)/C(=c2\sc3n(c2=O)C2C(NN=3)N(CC)C(=O)N2CC)c2ccccc21 (stereo unspecified) | not satisfied
CN(C)c1ncc(-c2ccc(C(F)(F)F)cc2)c(NC2CCCCCC2)n1 | not satisfied
O=C1CCCCC=C1C[N+](=O)[O-] | not satisfied
CCN(CC)P(=O)(N(CC)CC)N(CCCSC/C=C(\C)CC/C=C(\C)CCC=C(C)C)CCCN1CCN(C)CC1 | satisfied
Cn1cc(C=O)c2ccccc21 | satisfied
CCCn1c(=S)sc2c(Cl)nc(C)nc21 | satisfied

growth >= 90% for `CC(C)CCN(CCCNc1c2c(nc3ccccc13)CCCC2)CCC(C)C` ?
not satisfied

###

Test system: BT-549 breast
PROTOCOL TEXT: NCI-60 one-dose screen, 48 h (100 = growth as untreated, 0 = no growth, -100 = all killed)
PROTOCOL CONDITIONS: 10 µM unless noted
About 83,000 compounds went through this panel and 20% of them were active in at least one assay; those are over-represented in the sample as a whole.
Field: class. Source value: growth. Ranges: lower bin: < 60%; middle bin: ≥ 60% and < 90%; upper bin: ≥ 90%

As a guide, the following entries are already answered.
COMPOUND | GROUP LABEL
CCOC(=O)CC(C#N)(CC(=O)OCC)C(=O)OCC | upper bin
COc1ccc(/C=C2\C(=O)N(C(=O)c3csc(NC(C)=O)n3)N=C2C)cc1 | upper bin

Classify this compound: `CCOc1ccc(/C=C/C=N/NC(N)=S)cc1`
lower bin

Classify this compound: `CC(C)(C)OC(=O)N[C@@H](Cc1ccccc1)C(=O)N(Cc1ccccc1)C1(C(=O)NCc2ccccc2)CCN(Cc2ccccc2)CC1`
middle bin

Classify this compound: `O=C(NNC(=S)Nc1ccccc1)c1ccccn1`
lower bin

Classify this compound: `C=C1C(=O)O[C@H]2[C@H]1CC/C(COC(=O)NCCc1ccc(Br)cc1)=C\CC[C@@]1(C)O[C@@H]21`
lower bin

Classify this compound: `CCOC(=O)c1cc(/C(=N\O)c2cc(OC)c(OC)c(OC)c2)n2c(C)cccc12`
lower bin

Classify this compound: `CCCOC(=O)C1(O)CCCC1`
upper bin

Classify this compound: `COc1ccc(NC(=O)CSc2nc3ccc(Cl)cc3c(=O)n2-c2ccccc2C(F)(F)F)c(OC)c1OC`
middle bin

Classify this compound: `COc1ccc(-n2c(C)cc(-c3ccccc3)c2C)cc1`
lower bin

Classify this compound: `O=C(Nc1cc(C(F)(F)F)cc(C(F)(F)F)c1)Nc1ccc(OCc2nnc(-c3ccc(Cl)cc3)o2)c(F)c1`
lower bin

Classify this compound: `CC/C=C\C/C=C\C[C@H]1C/C=C2/C(=O)C=C[C@H]2C/C=C\CCC(=O)O1`
lower bin

Classify this compound: `O=C(Nc1ccc(F)c(Cl)c1)c1n[nH]c(=O)c2ccccc12`
upper bin

Classify this compound: `O=c1oc2cc(OS(=O)(=O)c3ccc(F)cc3)ccc2c2c1CCCCC2`
middle bin

###

Test system: NCI-H460 lung
PROTOCOL TEXT: NCI-60 one-dose screen, 48 h
PROTOCOL CONDITIONS: 10 µM unless noted
This is part of a sample that, as a whole, favours compounds with a hit. Of some 83,000 tested, about 20% had one in any assay. Active and inactive are the calls of the source. Rule for the calls: active = growth percent below 10; inactive = the rest.
Form entry, call: pick from TRUE (active), FALSE (inactive)

As a guide, the following entries are already answered.
MOLECULE | TESTED ON | GROUP LABEL
Cc1ccc(C2=NN(c3ccc(S(=O)(=O)NC(=O)NCc4ccccc4)cc3)C(c3ccc(N(C)C)cc3)C2)c(C)c1 (centres undefined) | NCI-H460 lung | FALSE
Clc1nc(-c2cccnc2)nc2sc3c(c12)CCCCCC3 | NCI-H460 lung | FALSE

As a next step, examine the molecule that follows.
In this assay, the call recorded for `O=C(/C=C/CN1CCOCC1)Nc1cc2c(Nc3ccc(F)c(Cl)c3F)ncnc2cc1OCCOC(F)F` was what?
FALSE
